Source listed as patent US8093274B2.

TARGET: GGTase I (substrate K-Ras4B) (Homo sapiens, UniProt P49354+P53609)
EXPERIMENT SUMMARY: GGTase I filter-binding assay with K-Ras4B as substrate
Format: biochemical
CONDITION: 50 μM compound; DMSO = 100%; smaller numbers indicate better inhibition; first number of pair; read-out: % activity of GGTase I for protein K-Ras4B in the presence of the compound
QUANTITY NAME: activity at 50 µM (%)

[
  {
    "COMPOUND": "Cc1ccc(S(=O)(=O)N2C(c3cccc(Br)c3)CC=C(C(=O)O)[C@@H]2c2cccc(C)c2)cc1 (stereo partly drawn)",
    "UNIT SPEC": "%",
    "activity at 50 µM": 16.1
  }
]

(a) CCC[C@@H]1[C@@H](SCCC(=O)OC(C)(C)C)[C@@H](C(=O)O)[C@H](c2cccc(F)c2)N1S(=O)(=O)c1ccc(C)cc1
(b) O=C(O)C1=CCC(c2ccc(Cl)cc2)N(S(=O)(=O)c2ccc(Cl)cc2)[C@H]1c1cccc(Br)c1 (stereo partly drawn)
Input: // compare measured activity at 50 µM, left a , right b , return larger Respond using the label that marks the chosen record.
Output: a
